- Test system: IGROV-1
- Method Notes: NCI tumour cell line growth inhibition, 48 h
The source made the active and inactive calls. No stated cut-off is given here; in the data, active = GI50 up to about 1.1 µM and inactive = higher.
// one of active, inactive, no free text

Problem: Hi team, can someone confirm the assay call for CC1OC(n2cc(I)c(=O)[nH]c2=O)C=CC1=O (stereo not given) ?
Solution: inactive

Problem: Hi team, can someone confirm the assay call for Nc1nc(N)c2cc(Sc3ccc4nc(N)nc(N)c4c3)ccc2n1 ?
Solution: active

Problem: Hi team, can someone confirm the assay call for O=c1c2cc(Br)cc(Br)c2[nH]c(=S)n1-c1ccc(/N=N/c2ccc(O)c3cccnc23)cc1 ?
Solution: inactive

Problem: Hi team, can someone confirm the assay call for CC12CCC(=O)N1[C@@H](c1ccccc1)[C@@H](c1ccccc1)O2 (stereo not given in full) ?
Solution: inactive

Problem: Hi team, can someone confirm the assay call for C=CC(CCc1ccc(C(=O)OCC)cc1)c1c(N)nc(N)[nH]c1=O (stereo not given) ?
Solution: inactive

---

- System: LOX IMVI
- Method Notes: NCI tumour cell line growth inhibition, 48 h
Active and inactive are the calls of the source. Cut-off read from the data, not from the text of the source: active = GI50 up to about 1.1 µM and inactive = higher.
// one of active, inactive, no free text

Problem: Hi team, can someone confirm the assay call for CCOC(=O)C(=O)/C=C(\C)Nc1c(NC2OCC(OC(C)=O)C(OC(C)=O)C2OC(C)=O)nc(SC)[nH]c1=O (stereo unspecified) ?
Solution: inactive

Problem: Hi team, can someone confirm the assay call for CC(C)(C)OC(=O)NC12C3C4C1C1C2C3C41NC(=O)OC(C)(C)C (stereo unspecified) ?
Solution: inactive

Problem: Hi team, can someone confirm the assay call for CC(=O)OCC1OC(n2c(C)c(/N=N/c3ccccc3)c(C)c(C#N)c2=S)C(OC(C)=O)C(OC(C)=O)C1OC(C)=O (stereo unspecified) ?
Solution: inactive

Problem: Hi team, can someone confirm the assay call for O=P(Oc1ccccc1)(Oc1ccccc1)Oc1c[nH]c2ccccc12 ?
Solution: inactive

Problem: Hi team, can someone confirm the assay call for O=C(CC(C(=O)c1cccs1)c1ccsc1)c1ccc(Cl)s1 (stereo unspecified) ?
Solution: inactive

Problem: Hi team, can someone confirm the assay call for CC12CCC(=O)N1[C@@H](c1ccccc1)[C@@H](c1ccccc1)O2 (stereo partly specified) ?
Solution: inactive

Problem: Hi team, can someone confirm the assay call for COc1ccc(C2=NN(c3ccccc3)C[N+](c3ccc(OC)cc3)=N2)cc1 ?
Solution: inactive

Problem: Hi team, can someone confirm the assay call for COC(=O)N/N=C(/CC1(O)C(=O)Nc2ccc([N+](=O)[O-])cc21)c1ccccc1 (stereo unspecified) ?
Solution: inactive

Problem: Hi team, can someone confirm the assay call for CCOC(=O)c1ccc(C(=O)/C(C(C)=O)=C2\CCCN2C)n1C ?
Solution: inactive

Problem: Hi team, can someone confirm the assay call for Cc1c(C(=O)CC(=O)C(=O)Nc2ccccc2C(F)(F)F)[n+]([O-])c2ccccc2[n+]1[O-] ?
Solution: inactive

Problem: Hi team, can someone confirm the assay call for CC(C)=NN/C(=N\c1ccc(Cl)cc1)NS(=O)(=O)c1cc2ccccc2s1 ?
Solution: inactive

Problem: Hi team, can someone confirm the assay call for COc1ccccc1C1C(Cl)C(=O)N1n1cnc2ccccc2c1=O (stereo unspecified) ?
Solution: inactive

Problem: Hi team, can someone confirm the assay call for COC(=O)NN1C(C)=C(C(=O)OC)C2(CCOC2=O)C1(C)O (stereo unspecified) ?
Solution: inactive

Problem: Hi team, can someone confirm the assay call for Cn1cc[n+](-c2cc(=O)n(C)c(=O)[n-]2)c1 ?
Solution: inactive

Problem: Hi team, can someone confirm the assay call for COc1ccc(C2=Nn3c(C)nnc3S/C2=C\c2ccc(-c3ccc([N+](=O)[O-])cc3)o2)cc1 ?
Solution: inactive

Problem: Hi team, can someone confirm the assay call for CN(C)CCNC(=O)c1cccc2[nH]c(-c3ccccc3)nc12 ?
Solution: inactive

Problem: Hi team, can someone confirm the assay call for Nc1cc2c3c(cccc3c1)C(=O)N(c1ccc(OCCN3CCCC3)cc1)C2=O ?
Solution: inactive

Problem: Hi team, can someone confirm the assay call for CC(C)(C)N1NC1C1NN1C(C)(C)C (stereo unspecified) ?
Solution: inactive

Problem: Hi team, can someone confirm the assay call for CC(C)(CN1CCCCC1)C(=O)/C=C/c1ccc(Cl)c(Cl)c1 ?
Solution: inactive

Problem: Hi team, can someone confirm the assay call for CC(C)(C)N1C(C(=O)c2ccccc2)C1c1ccccc1 (stereo unspecified) ?
Solution: inactive

Problem: Hi team, can someone confirm the assay call for NC(=O)CO/N=C1/C(=C2/C(=O)Nc3ccccc32)Nc2ccccc21 ?
Solution: active

---

- Test system: SNB-19
- Method Notes: NCI tumour cell line growth inhibition, 48 h
Activity calls are given as the source filed them. Cut-off read from the data, not from the text of the source: active = GI50 up to about 1.1 µM and inactive = higher.
Value Type: GI50

Problem: State its GI50 for this compound: NCCSSCc1ccccc1CSSCCN
Solution: > 100 µM (inactive)

Problem: State its GI50 for this compound: CN(CCNC(=O)c1cn(C)c2c1ccc1ccccc12)CCNC(=O)c1cn(C)c2c1ccc1ccccc12
Solution: 3.57 µM (inactive)

Problem: State its GI50 for this compound: CO/N=C(\C(=O)[N-]n1cn[n+](CC(=O)OC(C)(C)C)c1)c1csc(NC(c2ccccc2)(c2ccccc2)c2ccccc2)n1
Solution: > 10 µM (inactive)

Problem: State its GI50 for this compound: Clc1n[nH]c2ccccc12
Solution: > 100 µM (inactive)

Problem: State its GI50 for this compound: COc1ccc(C2=Nn3c(C)nnc3S/C2=C\c2ccc(-c3ccc([N+](=O)[O-])cc3)o2)cc1
Solution: 15.6 µM (inactive)

Problem: State its GI50 for this compound: COc1ccc2c(CN3CCCCC3CO)cc3cc(OC)c(OC)cc3c2c1 (stereo unspecified)
Solution: 4.04 µM (inactive)

---

- System: A549
- Method Notes: NCI tumour cell line growth inhibition, 48 h
Activity calls are given as the source filed them. Cut-off read from the data, not from the text of the source: active = GI50 up to about 1.1 µM and inactive = higher.
Assign GI50 to each entry below.

Problem: Please report the measured GI50 for C/C(=N\NC(=O)c1ccccc1O)c1c(O)cc(C)oc1=O tested on A549.
Solution: 33 µM (inactive)

Problem: Please report the measured GI50 for COc1cccc(C=O)c1C(=O)c1cc(O)ccc1O tested on A549.
Solution: > 100 µM (inactive)

Problem: Please report the measured GI50 for C/C=C(\NC(=O)C(CCCCN)NC(=O)C(C)NC(=O)C1CSC(C)C(NC(=O)C2CSCC(NC(=O)C(C)NC(=O)C(N)C(C)CC)C(=O)NC(CCCCN)C(=O)NC(Cc3ccccc3)C(=O)NC(CC(C)C)C(=O)N2)C(=O)N2CCCC2C(=O)NCC(=O)N1)C(=O)NCC(=O)NC1CSCC2NC(=O)C(Cc3ccc(O)cc3)NC(=O)C(CSC=CNC2=O)NC(=O)C(CC(N)=O)NC(=O)C(Cc2ccccc2)NC1=O (stereo not drawn) tested on A549.
Solution: > 100 µM (inactive)

Problem: Please report the measured GI50 for COC(=O)c1ccc(C)cc1CC1Cc2c(C)cccc2C1=O (stereo not drawn) tested on A549.
Solution: 7.57 µM (inactive)

Problem: Please report the measured GI50 for CCCN/C(N)=N/C#N tested on A549.
Solution: > 100 µM (inactive)

Problem: Please report the measured GI50 for O=P(Oc1ccccc1)(Oc1ccccc1)Oc1c[nH]c2ccccc12 tested on A549.
Solution: 11.1 µM (inactive)

Problem: Please report the measured GI50 for Cc1ccc(C(=O)O)c(/C=C2\Cc3cc(C)cc(C)c3C2=O)c1 tested on A549.
Solution: 78.2 µM (inactive)

Problem: Please report the measured GI50 for CC[N+](CC)(CC)Cc1cc2ccccc2n1C(=O)OC tested on A549.
Solution: > 100 µM (inactive)

---

- Tested on: SN12C
- Method Notes: NCI tumour cell line growth inhibition, 48 h
The source made the active and inactive calls. Rule as the data show it: active = GI50 up to about 1.1 µM and inactive = higher.
Value Type: GI50

Problem: State its GI50 for this molecule: COC(=O)c1ccc(C)cc1CC1Cc2c(C)cccc2C1=O (stereo not given)
Solution: 6.62 µM (inactive)

Problem: State its GI50 for this molecule: CCC(Nc1ncnc2nc[nH]c12)C(=O)O (stereo not given)
Solution: > 100 µM (inactive)

Problem: State its GI50 for this molecule: C[N+]1(C)C/C(=C\C=C\c2ccccc2)C(=O)/C(=C/C=C/c2ccccc2)C1
Solution: 7.69 µM (inactive)

Problem: State its GI50 for this molecule: COC(=O)C1=CC2C(=O)OC1C1C(=O)NC(=O)C21 (stereo not given)
Solution: > 100 µM (inactive)

Problem: State its GI50 for this molecule: C(=N\N=C1NCCCN1)/c1ccc2ccccc2c1
Solution: 12.4 µM (inactive)

Problem: State its GI50 for this molecule: FC(F)(Sc1ccccc1)c1nc2ccccc2o1
Solution: 74.5 µM (inactive)

Problem: State its GI50 for this molecule: COc1ccccc1/C=C1\C(=O)N(C(=O)Cc2ccccc2)N=C1C
Solution: > 100 µM (inactive)

Problem: State its GI50 for this molecule: CSCCCNC(=O)c1csc([C@@H](CSC)NC(=O)CCNC(=O)[C@@H](NC(=O)OCC(Br)(Br)Br)C(C)O)n1 (stereo not given in full)
Solution: > 100 µM (inactive)

Problem: State its GI50 for this molecule: CC(C)(C)c1cc(C(=O)O)c(C(c2ccccc2)c2ccccc2C(=O)O)c(C(=O)O)c1 (stereo not given)
Solution: 21.9 µM (inactive)

Problem: State its GI50 for this molecule: Cc1ccc(/C=C/c2n[nH]c(N/N=C/c3ccc4c(c3)OCO4)nc2=O)cc1
Solution: 18.5 µM (inactive)
